assay: Cytotoxicity against human HuH7 cells up to 15 uM after 48 hrs by Alamar Blue assay; type: cell-based; conditions: huh-7, 48 h
Assay Readout: Activity

Use these answered entries as a reference point.
CCC(=O)O[C@H]1CC[C@@H]2C(=C[C@H](OC)[C@@H]3[C@@]2(C)CC[C@]2(C)[C@@H]([C@H](C)C[C@H](C=C(C)C)OC(=O)CC)CC[C@@]32C)C1(C)C [KARAVOATE D]    Non-toxic
COC(C)(C)/C=C/C[C@@H](C)[C@H]1CC[C@@]2(C)[C@@H]3[C@@H](O[C@H]4O[C@@H](CO)[C@H](O)[C@H](O)[C@@H]4O)C=C4[C@@H](CC[C@H](O)C4(C)C)[C@]3(C)CC[C@]12C [BALSAMINOSIDE A]    Toxic
CO[C@H]1C=C2[C@@H](CC[C@H](O)C2(C)C)[C@]2(C)CC[C@]3(C)[C@@H]([C@H](C)C[C@@H](O)C=C(C)C)CC[C@@]3(C)[C@H]12    Non-toxic
CO[C@H]1C=C2[C@@H](CC[C@H](O)C2(C)C)[C@]2(C)CC[C@]3(C)[C@@H]([C@H](C)C[C@H](C=C(C)C)OC(C)=O)CC[C@@]3(C)[C@H]12 [KARAVOATE A]    Toxic
CC(C)=C[C@H](O)C[C@@H](C)[C@H]1CC[C@@]2(C)[C@@H]3[C@@H](O)C=C4[C@@H](CC[C@H](O)C4(C)C)[C@]3(C)CC[C@]12C    Non-toxic
CO[C@H]1C=C2[C@@H](CC[C@H](O)C2(C)C)[C@]2(C)CC[C@]3(C)[C@@H]([C@H](C)C[C@H](C=C(C)C)OC(=O)c4ccc([N+](=O)[O-])cc4)CC[C@@]3(C)[C@H]12 [KARAVOATE I]    Non-toxic

Parameter requested: Activity. Apply to each item below.
1. CO[C@H]1C=C2[C@@H](CC[C@H](OC(=O)c3ccc([N+](=O)[O-])cc3)C2(C)C)[C@]2(C)CC[C@]3(C)[C@@H]([C@H](C)C[C@H](C=C(C)C)OC(=O)c4ccc([N+](=O)[O-])cc4)CC[C@@]3(C)[C@H]12 [KARAVOATE J]
2. CO[C@H]1C=C2[C@@H](CC[C@H](O)[C@]2(C)CO)[C@]2(C)CC[C@]3(C)[C@@H]([C@H](C)C[C@@H](O)C=C(C)C)CC[C@@]3(C)[C@H]12
3. CC(=O)O[C@H]1C=C2[C@@H](CC[C@H](OC(C)=O)C2(C)C)[C@]2(C)CC[C@]3(C)[C@@H]([C@H](C)C[C@H](C=C(C)C)OC(C)=O)CC[C@@]3(C)[C@H]12

1: Non-toxic; 2: Non-toxic; 3: Non-toxic
